Cited source: patent US10206937B2

target: VIM-1 (Pseudomonas aeruginosa, UniProt A0A0F7KYQ8); construct: culture supernatant used unpurified; experiment: biochemical; details: cleavage of nitrocefin (200 uM) by VIM-1 supernatant
The following molecules are listed with their measured IC50 values.
READOUT_TYPE: IC50

smiles_string=CSCCOc1ccc2c(c1C(=O)O)OB(O)[C@@H](Sc1nncs1)C2 experimental_target="VIM-1 (Pseudomonas aeruginosa, UniProt A0A0F7KYQ8)" experimental_result="< 1 µM"
smiles_string=COc1ccc2c(c1C(=O)O)OB(O)[C@@H](Sc1nnc(NCCNC3CNC3)s1)C2 experimental_target="VIM-1 (Pseudomonas aeruginosa, UniProt A0A0F7KYQ8)" experimental_result="< 1 µM"
smiles_string=COc1ccc2c(c1C(=O)O)OB(O)[C@@H](Sc1nnc(N(CCN)CCN)s1)C2 experimental_target="VIM-1 (Pseudomonas aeruginosa, UniProt A0A0F7KYQ8)" experimental_result="< 1 µM"
smiles_string=COc1ccc2c(c1C(=O)O)OB(O)[C@@H](Sc1ncns1)C2 experimental_target="VIM-1 (Pseudomonas aeruginosa, UniProt A0A0F7KYQ8)" experimental_result="< 1 µM"
smiles_string=COc1ccc2c(c1C(=O)O)OB(O)[C@@H](Sc1nnc(CN)n1N)C2 experimental_target="VIM-1 (Pseudomonas aeruginosa, UniProt A0A0F7KYQ8)" experimental_result="< 1 µM"
smiles_string=COc1ccc2c(c1C(=O)O)OB(O)[C@@H](Sc1nnc(SCCN)s1)C2 experimental_target="VIM-1 (Pseudomonas aeruginosa, UniProt A0A0F7KYQ8)" experimental_result="< 1 µM"
smiles_string=COc1cc(OC)c(C(=O)O)c2c1C[C@H](Sc1nnc(N)s1)B(O)O2 experimental_target="VIM-1 (Pseudomonas aeruginosa, UniProt A0A0F7KYQ8)" experimental_result="≥ 1 µM"
smiles_string=O=C(O)c1cccc2c1OB(O)[C@@H](OC1CNC1)C2 experimental_target="VIM-1 (Pseudomonas aeruginosa, UniProt A0A0F7KYQ8)" experimental_result="≥ 1 µM"
smiles_string=CS[C@H]1Cc2cccc(C(=O)O)c2OB1O experimental_target="VIM-1 (Pseudomonas aeruginosa, UniProt A0A0F7KYQ8)" experimental_result="< 1 µM"
smiles_string=NCCOc1ccc2c(c1C(=O)O)OB(O)[C@@H](Sc1nnc(N)s1)C2 experimental_target="VIM-1 (Pseudomonas aeruginosa, UniProt A0A0F7KYQ8)" experimental_result="≥ 1 µM"
smiles_string=Nn1cnnc1S[C@H]1Cc2cccc(C(=O)O)c2OB1O experimental_target="VIM-1 (Pseudomonas aeruginosa, UniProt A0A0F7KYQ8)" experimental_result="< 1 µM"
smiles_string=O=C(O)c1cccc2c1OB(O)[C@@H](Sc1cccnc1)C2 experimental_target="VIM-1 (Pseudomonas aeruginosa, UniProt A0A0F7KYQ8)" experimental_result="< 1 µM"
smiles_string=COc1ccc2c(c1C(=O)O)OB(O)[C@@H](Sc1cnns1)C2 experimental_target="VIM-1 (Pseudomonas aeruginosa, UniProt A0A0F7KYQ8)" experimental_result="< 1 µM"
smiles_string=O=C(O)c1c(OCC(F)F)ccc2c1OB(O)[C@@H](Sc1nncs1)C2 experimental_target="VIM-1 (Pseudomonas aeruginosa, UniProt A0A0F7KYQ8)" experimental_result="< 1 µM"
smiles_string=COc1ccc2c(c1C(=O)O)OB(O)[C@@H](Sc1nc(N)n[nH]1)C2 experimental_target="VIM-1 (Pseudomonas aeruginosa, UniProt A0A0F7KYQ8)" experimental_result="< 1 µM"
smiles_string=Nc1nnc(S[C@H]2Cc3ccc(-n4ccnn4)c(C(=O)O)c3OB2O)s1 experimental_target="VIM-1 (Pseudomonas aeruginosa, UniProt A0A0F7KYQ8)" experimental_result="< 1 µM"
smiles_string=NC(=O)CCS[C@H]1Cc2cccc(C(=O)O)c2OB1O experimental_target="VIM-1 (Pseudomonas aeruginosa, UniProt A0A0F7KYQ8)" experimental_result="< 1 µM"
smiles_string=CO[C@H]1Cc2cccc(C(=O)O)c2OB1O experimental_target="VIM-1 (Pseudomonas aeruginosa, UniProt A0A0F7KYQ8)" experimental_result="< 1 µM"
smiles_string=NC(=O)c1csc(S[C@H]2Cc3ccc(F)c(C(=O)O)c3OB2O)n1 experimental_target="VIM-1 (Pseudomonas aeruginosa, UniProt A0A0F7KYQ8)" experimental_result="< 1 µM"
